Data provenance: patent EP4786466A1

METHOD: in vitro
TEST CONTEXT: human, mcf10a cells
MEASURE NAME: viability at 1.1 µM

>>> result("N#CCc1ccc(Nc2nc(Nc3cn[nH]c3)c3ccccc3n2)cc1 [compound 3f]")
"98.3%"
>>> result("O=S(=O)(c1ccc(F)cc1)N1CC2CC1CN2c1nc(Nc2cc(C3CC3)[nH]n2)c2ccccc2n1 (stereo not drawn) [compound 15n]")
"63.9%"
>>> result("CC(C)S(=O)(=O)N1CC2CC1CN2c1nc(Nc2cc(C3CC3)[nH]n2)c2ccccc2n1 (stereo not drawn) [compound 15h]")
"45%"
>>> result("O=S(=O)(c1ccccc1)N1CC2CC1CN2c1nc(Nc2cc(C3CC3)[nH]n2)c2ccccc2n1 (stereo not drawn) [compound 15m]")
"82.2%"
>>> result("CCCS(=O)(=O)N1CC2CC1CN2c1nc(Nc2cc(C3CC3)[nH]n2)c2ccccc2n1 (stereo not drawn) [compound 15j]")
"65.2%"
>>> result("O=S(=O)(c1ccc(F)cc1F)N1CC2CC1CN2c1nc(Nc2cc(C3CC3)[nH]n2)c2ccccc2n1 (stereo not drawn) [compound 15o]")
"92.6%"
>>> result("Cc1n[nH]c(C)c1Nc1nc(Nc2ccc(CC#N)cc2)nc2ccccc12 [compound 3d]")
"101%"
>>> result("O=S(=O)(c1cccc(Cl)c1)N1CC2CC1CN2c1nc(Nc2cc(C3CC3)[nH]n2)c2ccccc2n1 (stereo not drawn) [compound 15q]")
"108%"
>>> result("Cc1nn(C)c(C)c1Nc1nc(Nc2ccc(CC#N)cc2)nc2ccccc12 [3c]")
"115%"

* * *

The following compounds are listed with their measured pENSA (%) Immunofluor ecense (1 µM) values.
Tested on: pENSA
METHOD: pENSA level by immunofluorescence (described method: in vitro kinase analysis with GST-tag-MASTL and His-tag-ENSA)
Assay type: cell-based
TEST CONTEXT: compound 1 µM
MEASURE NAME: pENSA (%) Immunofluor ecense (1 µM)

>>> measured_number("FC(F)(F)c1cc(Nc2nc(Nc3cc(C4CC4)[nH]n3)c3ccccc3n2)ccc1Cl")
105
>>> measured_number("O=S(=O)(c1cccc(Cl)c1)N1CC2CC1CN2c1nc(Nc2cc(C3CC3)[nH]n2)c2ccccc2n1 (centres unmarked) [compound 15q]")
62.5
>>> measured_number("O=C(O)c1ccc(Nc2nc(Nc3cc(C4CC4)[nH]n3)c3ccccc3n2)cc1")
12
>>> measured_number("OCCN1CCN(c2nc(Nc3cc(C4CC4)[nH]n3)c3ccccc3n2)CC1 [compound 12b]")
41.7
>>> measured_number("CN(C)S(=O)(=O)c1ccc(Nc2nc(Nc3ccc(C#N)cc3)nc3ccccc23)cc1 [compound 25b]")
102
>>> measured_number("CN1CCN(c2nc(Nc3cc(C4CC4)[nH]n3)c3ccccc3n2)CC1 [compound 12a]")
63.8
>>> measured_number("CC(C)S(=O)(=O)N1CC2CC1CN2c1nc(Nc2cc(C3CC3)[nH]n2)c2ccccc2n1 (centres unmarked) [compound 15h]")
51.7
>>> measured_number("O=S(=O)(c1cccc2cccnc12)N1CC2CC1CN2c1nc(Nc2cc(C3CC3)[nH]n2)c2ccccc2n1 (centres unmarked) [compound 15z]")
102
>>> measured_number("CC(C)CN1CC2CC1CN2c1nc(Nc2cn[nH]c2)c2ccccc2n1 (centres unmarked) [compound 28e]")
95.8
>>> measured_number("CC(C)C(=O)N1CC2CC1CN2c1nc(Nc2cn[nH]c2)c2ccccc2n1 (centres unmarked) [compound 28c]")
80.0
>>> measured_number("CC(C)(C)OC(=O)N1CC2CC1CN2c1nc(Nc2cc(C3CC3)[nH]n2)c2ccccc2n1 (centres unmarked)")
90
>>> measured_number("c1ccc(Nc2nc(Nc3cc(C4CC4)[nH]n3)c3ccccc3n2)cc1")
3.7
>>> measured_number("CC(C)(C)OC(=O)NCCCCCNC(=O)c1ccc(Nc2nc(Nc3cc(C4CC4)[nH]n3)c3ccccc3n2)cc1")
188
>>> measured_number("Clc1nc(Nc2cc(C3CC3)[nH]n2)c2ccccc2n1")
105
>>> measured_number("Cc1ccc(C2=CCN(c3nc(Nc4cc(C5CC5)[nH]n4)c4ccccc4n3)CC2)c(C)c1")
97.4
>>> measured_number("FC(F)(F)c1ccc(C2=CCN(c3nc(Nc4cc(C5CC5)[nH]n4)c4ccccc4n3)CC2)cc1")
110
>>> measured_number("Nc1ccc(Nc2nc(Nc3cc(C4CC4)[nH]n3)c3ccccc3n2)cc1")
15.3
>>> measured_number("CN(C)S(=O)(=O)c1ccc(Nc2nc(Nc3cc(C4CC4)[nH]n3)c3ccccc3n2)cc1")
5.2
>>> measured_number("O=C1Cc2cc(Nc3nc(Nc4cc(C5CC5)[nH]n4)c4ccccc4n3)ccc2N1")
51.1
>>> measured_number("CCCc1ccc(S(=O)(=O)N2CC3CC2CN3c2nc(Nc3cc(C4CC4)[nH]n3)c3ccccc3n2)cc1 (centres unmarked) [compound 15x]")
94.0
>>> measured_number("O=S(=O)(c1ccc(F)cc1)N1CC2CC1CN2c1nc(Nc2cc(C3CC3)[nH]n2)c2ccccc2n1 (centres unmarked) [compound 15n]")
77.5
>>> measured_number("CC(C)C(=O)N1CC=C(c2nc(Nc3cc(C4CC4)[nH]n3)c3ccccc3n2)CC1")
34.6
>>> measured_number("CC(C)CN1CC2CC1CN2c1nc(Nc2cc(C3CC3)[nH]n2)c2ccccc2n1 (centres unmarked) [compound 15f]")
65.3
>>> measured_number("CC(C)(C)OC(=O)NCCNC(=O)c1ccc(Nc2nc(Nc3cc(C4CC4)[nH]n3)c3ccccc3n2)cc1")
135
>>> measured_number("Cc1cc(Nc2nc(N3CC4CC3CN4Cc3ccccc3)nc3ccccc23)n[nH]1 (centres unmarked) [compound 27f]")
77.4
>>> measured_number("c1ccc2c(Nc3cc(C4CC4)[nH]n3)nc(Nc3cc(C4CC4)[nH]n3)nc2c1")
92.8
>>> measured_number("Brc1ccc(Nc2nc(Nc3cc(C4CC4)[nH]n3)c3ccccc3n2)cc1")
82
>>> measured_number("Cc1ccc(S(=O)(=O)N2CC3CC2CN3c2nc(Nc3cc(C4CC4)[nH]n3)c3ccccc3n2)cc1F (centres unmarked) [compound 15w]")
86.2
>>> measured_number("O=S(=O)(C1CCCCC1)N1CC2CCC1CN2c1nc(Nc2cc(C3CC3)[nH]n2)c2ccccc2n1 (centres unmarked) [compound 24b]")
36
>>> measured_number("CC(C)(C)OC(=O)N1CC2CCC1CN2c1nc(Nc2cc(C3CC3)[nH]n2)c2ccccc2n1 (centres unmarked)")
84.7
>>> measured_number("NCCCCNC(=O)c1ccc(Nc2nc(Nc3cc(C4CC4)[nH]n3)c3ccccc3n2)cc1")
149
>>> measured_number("c1ccc2c(Nc3cc(C4CC4)[nH]n3)nc(N3CC4CC3CN4)nc2c1 (centres unmarked)")
9.2

* * *

Test system: MCF7 breast cancer cell lines
METHOD: Cell viability analysis, WST-8 assay, MCF7
TEST CONTEXT: Homo sapiens, MCF7, 72 h, read-out: Cell viability (%) WST-8, MCF7 (1 µM), compound 1 µM, 72 hours
The following molecules are listed with their measured viability at 1 µM values.
MEASURE NAME: viability at 1 µM (%)

>>> measured_number("c1ccc2c(Nc3cc(C4CC4)[nH]n3)nc(Nc3cnc4[nH]ccc4c3)nc2c1")
49
>>> measured_number("N#CCc1ccc(C2=CCN(c3nc(Nc4cc(C5CC5)[nH]n4)c4ccccc4n3)CC2)cc1F")
110
>>> measured_number("CCc1ccccc1C1=CCN(c2nc(Nc3cc(C4CC4)[nH]n3)c3ccccc3n2)CC1")
65.7
>>> measured_number("c1ccc2c(Nc3cc(C4CC4)[nH]n3)nc(Nc3ccc4[nH]ccc4c3)nc2c1")
3.2

* * *

MEASURED TARGET: Recombinant GST-TAG-MASTL (Homo sapiens)
Construct: GST; purchased Thermo Fisher Scientific
Sequence (Q96GX5 whole entry): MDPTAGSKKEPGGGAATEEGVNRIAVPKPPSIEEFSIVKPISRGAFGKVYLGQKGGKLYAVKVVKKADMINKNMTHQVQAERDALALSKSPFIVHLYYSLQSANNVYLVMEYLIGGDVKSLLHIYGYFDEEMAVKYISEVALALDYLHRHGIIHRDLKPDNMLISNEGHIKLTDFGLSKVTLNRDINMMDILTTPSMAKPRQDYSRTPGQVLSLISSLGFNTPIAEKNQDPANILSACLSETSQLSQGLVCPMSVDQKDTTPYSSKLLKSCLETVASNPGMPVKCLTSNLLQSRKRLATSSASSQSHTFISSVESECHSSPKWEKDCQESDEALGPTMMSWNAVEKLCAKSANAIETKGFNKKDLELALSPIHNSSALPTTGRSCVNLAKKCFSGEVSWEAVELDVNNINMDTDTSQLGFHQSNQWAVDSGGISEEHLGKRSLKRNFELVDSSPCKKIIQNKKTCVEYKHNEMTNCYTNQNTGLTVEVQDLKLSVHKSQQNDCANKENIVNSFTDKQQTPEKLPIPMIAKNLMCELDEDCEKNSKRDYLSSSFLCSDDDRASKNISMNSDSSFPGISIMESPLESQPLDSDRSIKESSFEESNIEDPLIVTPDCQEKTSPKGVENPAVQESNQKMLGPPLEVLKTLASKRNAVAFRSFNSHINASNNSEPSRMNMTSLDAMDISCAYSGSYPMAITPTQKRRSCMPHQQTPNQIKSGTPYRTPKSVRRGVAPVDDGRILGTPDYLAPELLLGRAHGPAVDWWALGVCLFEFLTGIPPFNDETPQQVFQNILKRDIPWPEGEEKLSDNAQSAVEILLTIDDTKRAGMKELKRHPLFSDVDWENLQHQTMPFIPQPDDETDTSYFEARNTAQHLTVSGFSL
METHOD: HTRF-based kinase assay (HTRF KinEASE assay kit)
Assay type: biochemical
TEST CONTEXT: read-out: MASTL activity (%) HTRF
The following molecules are listed with their measured activity at 10 µM values.
MEASURE NAME: activity at 10 µM (%)

>>> measured_number("O=S(=O)(NCCO)c1ccc(Nc2nc(Nc3cc(C4CC4)[nH]n3)c3ccccc3n2)cc1 [compound 4i]")
8.7
>>> measured_number("NS(=O)(=O)c1ccc(Nc2nc(Nc3cc(C4CC4)[nH]n3)c3ccccc3n2)cc1 [compound 4g]")
18.6
>>> measured_number("Cc1nn(CC(C)C)c(C)c1Nc1nc(Nc2ccc(CC#N)cc2)nc2ccccc12 [compound 3b]")
123
>>> measured_number("Cc1n[nH]cc1Nc1nc(Nc2ccc(CC#N)cc2)nc2ccccc12 [compound 3e]")
100

* * *

Tested on: pENSA
METHOD: pENSA level by immunofluorescence (described method: in vitro kinase analysis with GST-tag-MASTL and His-tag-ENSA)
Format: cell-based
TEST CONTEXT: compound 1 µM
Where a name gives a salt, the structure may show the parent alone.
Rule: pENSA (%) Immunofluor ecense (1 µM) of 80% or more gives met; anything lower gives not met.

>>> label_class("O=C(O)Cc1ccc(Nc2nc(Nc3cc(C4CC4)[nH]n3)c3ccccc3n2)cc1")
"met"
>>> label_class("C1=C(c2nc(Nc3cc(C4CC4)[nH]n3)c3ccccc3n2)CCNC1")
"not met"
>>> label_class("CC(C)(C)OC(=O)N1C2CCC1CN(c1nc(Nc3cc(C4CC4)[nH]n3)c3ccccc3n1)C2")
"not met"
>>> label_class("c1ccc2c(Nc3cc(C4CC4)[nH]n3)nc(N3CCNCC3)nc2c1")
"not met"
>>> label_class("FC(F)(F)c1cccc(C2=CCN(c3nc(Nc4cc(C5CC5)[nH]n4)c4ccccc4n3)CC2)c1")
"met"
>>> label_class("NS(=O)(=O)c1ccc(Nc2nc(Nc3cc(C4CC4)[nH]n3)c3ccccc3n2)cc1")
"not met"
>>> label_class("O=C(c1ccccc1)N1CC2CC1CN2c1nc(Nc2cn[nH]c2)c2ccccc2n1 (stereo not drawn) [compound 28d]")
"not met"
>>> label_class("CC(C)(C)OC(=O)N1CC=C(c2nc(Nc3cc(C4CC4)[nH]n3)c3ccccc3n2)CC1")
"not met"
>>> label_class("Cc1cc(Nc2nc(Nc3ccc(CC#N)cc3)nc3ccccc23)n[nH]1")
"not met"
>>> label_class("OCCNc1nc(Nc2cc(C3CC3)[nH]n2)c2ccccc2n1 [compound 4cf, hydrochloride]")
"not met"
>>> label_class("CCc1ccccc1C1=CCN(c2nc(Nc3cc(C4CC4)[nH]n3)c3ccccc3n2)CC1")
"met"
>>> label_class("O=S(=O)(c1ccccc1)N1CC2CC1CN2c1nc(Nc2cc(C3CC3)[nH]n2)c2ccccc2n1 (stereo not drawn) [compound 15m]")
"met"
>>> label_class("COC(=O)c1ccc(Nc2nc(Nc3cc(C4CC4)[nH]n3)c3ccccc3n2)cc1")
"not met"
>>> label_class("CCNC(=O)N1CCN(c2nc(Nc3cc(C4CC4)[nH]n3)c3ccccc3n2)CC1 [compound 12c]")
"not met"
>>> label_class("CCCS(=O)(=O)N1CC2CC1CN2c1nc(Nc2cc(C3CC3)[nH]n2)c2ccccc2n1 (stereo not drawn) [compound 15j]")
"not met"
>>> label_class("CC(C)(C)OC(=O)N1CC2(CCN(c3nc(Nc4cc(C5CC5)[nH]n4)c4ccccc4n3)CC2)C1")
"met"
>>> label_class("O=C(c1ccccc1)N1CC2CC1CN2c1nc(Nc2cc(C3CC3)[nH]n2)c2ccccc2n1 (stereo not drawn) [compound 15e]")
"not met"
>>> label_class("N#Cc1ccccc1S(=O)(=O)N1CC2CCC1CN2c1nc(Nc2cc(C3CC3)[nH]n2)c2ccccc2n1 (stereo not drawn) [compound 24e]")
"not met"
